Tested on: Caco-2
method: drug sensitivity score (DSS) for viability; higher = more toxic; extreme values may be limits of the assay
measurement setup: 72 h
observation type: drug sensitivity score
// return just the number, without any unit appended

*Q* drug sensitivity score for "Clc1ccc(N/N=C(\c2ccccc2)c2ccccn2)nc1" ?
*A* 24.6

*Q* Consider the compound shown here: CCc1cc(C(N)=S)ccn1 [ethionamide] What is its recorded drug sensitivity score?
*A* 0

*Q* Returns the measured drug sensitivity score for the input compound. Input: "O=C(Nc1ccc(-c2ccncc2)cc1)N[C@H](CO)c1ccccc1"
*A* 0

*Q* Which drug sensitivity score is listed for "COc1cccc([C@H](O)C2CCN(CCc3ccc(F)cc3)CC2)c1OC" ?
*A* 0.2

*Q* Which drug sensitivity score value is on record for "O=C1C(=Cc2cccnc2)C(=O)c2ccccc21" ?
*A* 0

*Q* Give the measured drug sensitivity score of "Clc1cccc(/C=N/N=C/c2cccc(Cl)c2)c1" .
*A* 0

*Q* Quick check: drug sensitivity score of NC(=O)c1ccc[n+]([C@@H]2O[C@H](COP(=O)([O-])OP(=O)(O)OC[C@H]3O[C@@H](n4cnc5c(N)ncnc54)[C@H](O)[C@@H]3O)[C@@H](O)[C@H]2O)c1 [nadide] ?
*A* 0

*Q* Which drug sensitivity score value is on record for "CCNC(=O)C[C@@H]1N=C(c2ccc(Cl)cc2)c2cc(OC)ccc2-n2c(C)nnc21" ?
*A* 2

*Q* Consider the compound NS(=O)(=O)c1cc2c(cc1C(F)(F)F)NC(Cc1ccccc1)NS2(=O)=O (stereo not given) [bendroflumethiazide] and give its measured drug sensitivity score.
*A* 0

*Q* I'd like to know its drug sensitivity score. The compound in question is "C=C(CC)C(=O)c1ccc(OCC(=O)O)c(Cl)c1Cl"
*A* 0

*Q* // returns reported drug sensitivity score for input "COc1cc(Br)c(S(=O)(=O)Nc2ccc(C(F)(F)F)c(O[C@@H]3CCN(C)C3)c2)cc1OC"
*A* 0

*Q* // returns reported drug sensitivity score for input "COc1ccc(C(C)(C)C)cc1CN[C@H]1C2CCN(CC2)[C@H]1C(c1ccccc1)c1ccccc1"
*A* 1.3

*Q* # input compound: "CC(=O)N1CCC[C@H]1C(=O)N[C@@H](Cc1cnc[nH]1)C(=O)N[C@@H](CO)C(=O)N[C@@H](CS)C(=O)N[C@@H](CC(N)=O)C(N)=O" ; wanted: its drug sensitivity score
*A* 0

*Q* Report drug sensitivity score for "COc1ccc(C(=O)c2c(C)n(CCN3CCOCC3)c3ccccc23)cc1" please.
*A* 3.4

*Q* I would be grateful if you could share the reported drug sensitivity score for "Cc1ccnc(NS(=O)(=O)c2ccc(N)cc2)n1" .
*A* 0

---

Tested on: Caco-2
method: cell viability relative to DMSO; higher = less toxic
measurement setup: 72 h; 1000 nM
Just a reminder that ties go to class 0: only cell viability strictly below 90% counts as class 1.

*Q* Just wondering, is cell viability of "C[C@@H]1CCN(C(=O)CC#N)C[C@@H]1N(C)c1ncnc2[nH]ccc12" below 90%?
*A* class 0

*Q* Find out if reported cell viability for Nc1ccc(C(=O)O)c(O)c1 [aminosalicylate] is less than 90%
*A* class 0

*Q* Regarding "Clc1cccc(/C=N/N=C/c2cccc(Cl)c2)c1" , kindly confirm whether its cell viability is beneath 90%.
*A* class 0

*Q* Is 90% strictly greater than the molecule's reported cell viability? molecule: "Cc1ccc2c(=O)c3ccccc3n(CCCN)c2c1C"
*A* class 1

*Q* Consider NC1CCN(c2nc3c(cc2F)c(=O)c(C(=O)O)cn3-c2ccc(F)cc2F)C1 (centres undefined) . Does its cell viability lie strictly below 90%?
*A* class 0

*Q* Bench note: check whether "C[C@@H]1O[C@@H](OC[C@H]2O[C@@H](Oc3c(-c4ccc(O)c(O)c4)oc4cc(O)cc(O)c4c3=O)[C@H](O)[C@@H](O)[C@@H]2O)[C@H](O)[C@H](O)[C@H]1O" shows cell viability below 90%
*A* class 0

*Q* Confirm or reject: cell viability of "O=c1[nH]c2ccc(Cl)cc2c(N[C@@H]2CN3CCC2CC3)c1-c1nc2ccccc2[nH]1" lies strictly below 90%
*A* class 1

*Q* In the record for "Cc1cc(I)ccc1Nc1c(C(=O)NOCC2CC2)cc(F)c(F)c1F" , is cell viability less than 90%?
*A* class 1

Measured values drawn from the supplement of paper PMC13380429 for this set.
